GI50 values by entry
- System: Malme-3M
- test: NCI tumour cell line growth inhibition, 48 h
The source made the active and inactive calls. Rule as the data show it: active = GI50 up to about 1.1 µM and inactive = higher.
parameter-measured: GI50

>  <molecule>
C[C@H](N)C(=O)Nc1ccc(-c2nc3ccccc3s2)cc1Cl

>  <tested-on>
Malme-3M

>  <parameter-measured>
GI50

>  <result>
22.1 µM (inactive)

$$$$
>  <molecule>
O=C(O)/C(Cc1c[nH]nn1)=N\O

>  <tested-on>
Malme-3M

>  <parameter-measured>
GI50

>  <result>
> 100 µM (inactive)

$$$$
>  <molecule>
CCCCCCC(O)C/C=C/CCCCCC/C(C(=O)OC)=C(/O)C(=O)OCC (configuration not stated)

>  <tested-on>
Malme-3M

>  <parameter-measured>
GI50

>  <result>
> 100 µM (inactive)

$$$$
>  <molecule>
CCCCc1ccc(Nc2nc(SC)c3[nH]cnc3n2)cc1

>  <tested-on>
Malme-3M

>  <parameter-measured>
GI50

>  <result>
> 100 µM (inactive)

$$$$
>  <molecule>
C[N+](C)([O-])CCCNc1c2ccccc2nc2cccc([N+](=O)[O-])c12

>  <tested-on>
Malme-3M

>  <parameter-measured>
GI50

>  <result>
0.173 µM (active)

$$$$
>  <molecule>
COc1cc2c(c(OC)c1OC)-c1ccc(SC)c(=O)cc1[C@@H](NC(=O)c1cccc([N+](=O)[O-])c1)CC2

>  <tested-on>
Malme-3M

>  <parameter-measured>
GI50

>  <result>
0.0161 µM (active)

$$$$
>  <molecule>
O=C([C@H](O)[C@@H](O)c1ccc(Br)cc1)C12CC3CC(CC(C3)C1)C2

>  <tested-on>
Malme-3M

>  <parameter-measured>
GI50

>  <result>
13.9 µM (inactive)

$$$$
>  <molecule>
C=C1C(=O)OC2/C=C(/C)C3CC(O)C(C)(CC(OC(=O)/C(C)=C/C)C12)O3 (configuration not stated)

>  <tested-on>
Malme-3M

>  <parameter-measured>
GI50

>  <result>
2.28 µM (inactive)

$$$$
>  <molecule>
OC1/C(=C/c2ccccc2)CNC/C1=C\c1ccccc1 (configuration not stated)

>  <tested-on>
Malme-3M

>  <parameter-measured>
GI50

>  <result>
> 100 µM (inactive)

$$$$
>  <molecule>
C/C(=N\NC(=S)N1CCOCC1)c1nc2cccnc2[nH]1

>  <tested-on>
Malme-3M

>  <parameter-measured>
GI50

>  <result>
> 100 µM (inactive)

$$$$
>  <molecule>
COC1(OC)C(/C(N)=C\O)=NC(C)(C)N1O

>  <tested-on>
Malme-3M

>  <parameter-measured>
GI50

>  <result>
> 100 µM (inactive)

$$$$
>  <molecule>
O=C1OCc2cccc3c2-c2c1cccc2C(=O)OC3

>  <tested-on>
Malme-3M

>  <parameter-measured>
GI50

>  <result>
> 100 µM (inactive)

$$$$
>  <molecule>
CCCCCCCCCCCC(=O)OC[C@@H](C[As](=O)(O)O)OC(=O)CCCCCCCCCCC

>  <tested-on>
Malme-3M

>  <parameter-measured>
GI50

>  <result>
3.41 µM (inactive)

$$$$
>  <molecule>
CC(=O)OC1CCC2(C)C(=CCC3C2CCC2(C)C3CC3OC4(CCC(C)CN4)C(C)C32)C1 (configuration not stated)

>  <tested-on>
Malme-3M

>  <parameter-measured>
GI50

>  <result>
> 100 µM (inactive)

$$$$
>  <molecule>
Fc1cc(-c2cc(-c3ccc4c(c3)OCO4)n[nH]2)c(Cl)cc1Cl

>  <tested-on>
Malme-3M

>  <parameter-measured>
GI50

>  <result>
4.94 µM (inactive)

$$$$
>  <molecule>
Cc1cc(/N=N/c2ccccc2C)ccc1N

>  <tested-on>
Malme-3M

>  <parameter-measured>
GI50

>  <result>
19 µM (inactive)

$$$$
>  <molecule>
O=S(=O)(O)c1ccc(/N=N\c2c(O)ccc3cc(Br)ccc23)cc1

>  <tested-on>
Malme-3M

>  <parameter-measured>
GI50

>  <result>
> 100 µM (inactive)

$$$$
>  <molecule>
Clc1cccc(-c2nnc(-c3nn(-c4ccccc4)c4nc5ccccc5nc34)o2)c1

>  <tested-on>
Malme-3M

>  <parameter-measured>
GI50

>  <result>
> 100 µM (inactive)

$$$$
>  <molecule>
CN(C)c1ccc2nc3c(ccc4ccccc43)[o+]c2c1

>  <tested-on>
Malme-3M

>  <parameter-measured>
GI50

>  <result>
12.9 µM (inactive)

$$$$
>  <molecule>
CC(/C=N/N(C)C1=NCCCCN1)=N/N(C)C1=NCCCCN1

>  <tested-on>
Malme-3M

>  <parameter-measured>
GI50

>  <result>
> 100 µM (inactive)

$$$$
>  <molecule>
COc1cc(S(=O)(=O)Nc2ccc(-c3csc(N4C(=O)C(C)SC4c4ccccc4)n3)cc2)ccc1Cl (configuration not stated)

>  <tested-on>
Malme-3M

>  <parameter-measured>
GI50

>  <result>
80.4 µM (inactive)

$$$$
>  <molecule>
OCCNc1ncnc2[nH]cnc12

>  <tested-on>
Malme-3M

>  <parameter-measured>
GI50

>  <result>
> 100 µM (inactive)

$$$$
>  <molecule>
Cn1cc(-c2ccc(CCOC3CCCCO3)cc2)c2c(C#N)cccc21 (configuration not stated)

>  <tested-on>
Malme-3M

>  <parameter-measured>
GI50

>  <result>
83 µM (inactive)

$$$$
>  <molecule>
CC(=O)Nc1ccc(S(=O)(=O)/N=C2\C=CC(=O)c3ccccc32)cc1

>  <tested-on>
Malme-3M

>  <parameter-measured>
GI50

>  <result>
3.65 µM (inactive)

$$$$
>  <molecule>
O=C1c2ccccc2C(=O)N1C/C=N/NS(=O)(=O)c1cccc([N+](=O)[O-])c1

>  <tested-on>
Malme-3M

>  <parameter-measured>
GI50

>  <result>
> 100 µM (inactive)

$$$$
>  <molecule>
C=CN1C(=O)[C@H](Oc2ccccc2)[C@@H]1c1ccccc1

>  <tested-on>
Malme-3M

>  <parameter-measured>
GI50

>  <result>
63.2 µM (inactive)

$$$$
>  <molecule>
Cn1cc(NC(=O)c2cc(NC(=O)CCCCCC(=O)Nc3cc(C(=O)Nc4cc(C(=O)NCCC(=N)N)n(C)c4)n(C)c3)cn2C)cc1C(=O)NCCC(=N)N

>  <tested-on>
Malme-3M

>  <parameter-measured>
GI50

>  <result>
9.64 µM (inactive)

$$$$
>  <molecule>
NC(=O)N1N=C2c3ccccc3OC[C@H]2[C@@H]1c1ccccc1

>  <tested-on>
Malme-3M

>  <parameter-measured>
GI50

>  <result>
21.1 µM (inactive)

$$$$
>  <molecule>
Clc1ccc(C2=NCON=C2c2ccc(Cl)cc2)cc1

>  <tested-on>
Malme-3M

>  <parameter-measured>
GI50

>  <result>
14.5 µM (inactive)

$$$$
>  <molecule>
O=C(c1ccccc1)N1C(=S)NC(=N/c2ccccc2)/C1=N\c1ccccc1

>  <tested-on>
Malme-3M

>  <parameter-measured>
GI50

>  <result>
> 100 µM (inactive)

$$$$
>  <molecule>
Nc1ccccc1OCc1cc(=O)c(OCc2ccccc2)co1

>  <tested-on>
Malme-3M

>  <parameter-measured>
GI50

>  <result>
34.6 µM (inactive)

$$$$
>  <molecule>
CCOC(=O)CC1=N/C(=N/C(=N)N[N+](=O)[O-])SC1

>  <tested-on>
Malme-3M

>  <parameter-measured>
GI50

>  <result>
> 100 µM (inactive)

$$$$
>  <molecule>
COC(=O)C1=C(C)N(NC(N)=O)C2(N)N(NC(N)=O)C(C)=C(C(=O)OC)C12C(=O)OC (configuration not stated)

>  <tested-on>
Malme-3M

>  <parameter-measured>
GI50

>  <result>
> 100 µM (inactive)

$$$$
>  <molecule>
CNc1nc(=O)c(C#N)c(-c2ccc(C)cc2)s1

>  <tested-on>
Malme-3M

>  <parameter-measured>
GI50

>  <result>
> 100 µM (inactive)

$$$$
>  <molecule>
O=C1O[C@@H](c2ccccc2)C[C@H]1CN1CCOCC1

>  <tested-on>
Malme-3M

>  <parameter-measured>
GI50

>  <result>
> 100 µM (inactive)

$$$$
>  <molecule>
Fc1ccc2nc3n(c2c1)C(c1c(Cl)cccc1Cl)SC3 (configuration not stated)

>  <tested-on>
Malme-3M

>  <parameter-measured>
GI50

>  <result>
> 100 µM (inactive)

$$$$
>  <molecule>
C/C(=N/NC(=S)Nc1cccc(Cl)c1)c1cccc(/C(C)=N\NC(=S)Nc2cccc(Cl)c2)n1

>  <tested-on>
Malme-3M

>  <parameter-measured>
GI50

>  <result>
1.43 µM (inactive)

$$$$
>  <molecule>
O=[N+]([O-])/C(Cl)=C(\NCCO)C(Cl)=C(Cl)Cl

>  <tested-on>
Malme-3M

>  <parameter-measured>
GI50

>  <result>
32.5 µM (inactive)

$$$$
>  <molecule>
O=C(/C=C1/Nc2ccc([N+](=O)[O-])cc2NC1O)c1cccc([N+](=O)[O-])c1 (configuration not stated)

>  <tested-on>
Malme-3M

>  <parameter-measured>
GI50

>  <result>
38.4 µM (inactive)

$$$$
>  <molecule>
c1ccc([I+]c2ccccc2)cc1

>  <tested-on>
Malme-3M

>  <parameter-measured>
GI50

>  <result>
> 100 µM (inactive)

$$$$
>  <molecule>
Cc1cc(C)nc(NS(=O)(=O)c2ccc(NC(=O)c3ccc4nc5ccccc5c(Nc5ccc(S(=O)(=O)Nc6nc(C)cc(C)n6)cc5)c4c3)cc2)n1

>  <tested-on>
Malme-3M

>  <parameter-measured>
GI50

>  <result>
67.5 µM (inactive)

$$$$
>  <molecule>
Cn1c(=O)nc2n(-c3cccc(Br)c3)c3ccccc3nc-2c1=O

>  <tested-on>
Malme-3M

>  <parameter-measured>
GI50

>  <result>
2.71 µM (inactive)

$$$$

Every entry's value here was drawn from ChEMBL document CHEMBL1201862.
